Recorded inhibition of growth at 400 ppm, one value per entry.
tested on: Fusarium oxysporum; assay: Antifungal activity against Fusarium oxysporum assessed as inhibition of mycelia growth at 400 ppm after 1 week by filter paper method relative to control; assay type: functional; details: 168 h, read-out: GI

| compound | target_or_test_system | inhibition of growth at 400 ppm / % |
| --- | --- | --- |
| C[C@H]1[C@@H](OCCC#Cc2ccc(F)nc2)O[C@@H]2O[C@@]3(C)CC[C@H]4[C@H](C)CC[C@@H]1[C@@]24OO3 | Fusarium oxysporum | 63.9 |
| C[C@H]1[C@@H](OCCC#Cc2ccc(-c3ccc(F)cc3)s2)O[C@@H]2O[C@@]3(C)CC[C@H]4[C@H](C)CC[C@@H]1[C@@]24OO3 | Fusarium oxysporum | 66.9 |
| C[C@@H]1CC[C@H]2[C@@H](C)C(=O)O[C@@H]3O[C@@]4(C)CC[C@@H]1[C@]32OO4 [ARTEMISININ] | Fusarium oxysporum | 75.5 |
| C[C@H]1[C@@H](OCC#Cc2ccc(F)nc2)O[C@@H]2O[C@@]3(C)CC[C@H]4[C@H](C)CC[C@@H]1[C@@]24OO3 | Fusarium oxysporum | 58.4 |
| C[C@H]1[C@@H](OCC#Cc2ccc(F)cc2)O[C@@H]2O[C@@]3(C)CC[C@H]4[C@H](C)CC[C@@H]1[C@@]24OO3 | Fusarium oxysporum | 54.4 |
| C[C@H]1[C@@H](OCCC#Cc2ccc(-c3cccc(C(F)(F)F)c3)cc2)O[C@@H]2O[C@@]3(C)CC[C@H]4[C@H](C)CC[C@@H]1[C@@]24OO3 | Fusarium oxysporum | 66.5 |
| C[C@H]1[C@@H](OCC#Cc2ccccc2F)O[C@@H]2O[C@@]3(C)CC[C@H]4[C@H](C)CC[C@@H]1[C@@]24OO3 | Fusarium oxysporum | 54.2 |
| C[C@H]1[C@@H](OCC#Cc2cccc(F)c2)O[C@@H]2O[C@@]3(C)CC[C@H]4[C@H](C)CC[C@@H]1[C@@]24OO3 | Fusarium oxysporum | 61.8 |
| C[C@H]1[C@@H](OCCC#Cc2ccc(-c3ccc(F)cc3)cc2)O[C@@H]2O[C@@]3(C)CC[C@H]4[C@H](C)CC[C@@H]1[C@@]24OO3 | Fusarium oxysporum | 67.9 |
| C[C@H]1[C@@H](OCCC#Cc2cccc(-c3ccc(F)cc3)c2)O[C@@H]2O[C@@]3(C)CC[C@H]4[C@H](C)CC[C@@H]1[C@@]24OO3 | Fusarium oxysporum | 65.2 |
| C#CCCO[C@H]1O[C@@H]2O[C@@]3(C)CC[C@H]4[C@H](C)CC[C@@H]([C@H]1C)[C@@]24OO3 | Fusarium oxysporum | 73.2 |
| C#CCO[C@H]1O[C@@H]2O[C@@]3(C)CC[C@H]4[C@H](C)CC[C@@H]([C@H]1C)[C@@]24OO3 | Fusarium oxysporum | 66.4 |

All figures here come from ChEMBL document CHEMBL3600327.
